Target: pm8 (human, sulfated tyrosines at Y15, Y16 and Y17)
Sequence (peptide, as listed by the source): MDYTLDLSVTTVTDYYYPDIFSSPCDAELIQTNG
Experiment: ELISA on coated peptide [cont.]
ASSAY ENDPOINT: binding result

3-42 (antibody, V domains shown) VH: QVQLKESGPGLVAPSQSLSITCTVSGFSLTDYRVSWIRQPPGKGLEWLGVIWGGRSTYYNSALKSRLSISKDNSKSQVFLKMNSLQTDDTAMYYCAKQGDGYYALDYWGQGTSVTVSS VL: DVVMTQTPLSLPVSLGDQASISCRSSQSLVHSYGNTYLHWYLQKPGQSPKLLIYKVSNRFSGVPDRFHGSGSGTDFTLKISRVEAEDLGVYFCSQSTHVPPTFGGGTKLEIK | binds
